- experiment-description: Urinary pharmacokinetics after single doses of LED-E
- Type: in vivo, human
- test-settings: human, urine, oral; single dose LED-E 800 mg; geometric mean (geometric CV %)
experimental-readout: CL renal

• CCC(=O)N[C@H]1Cc2cccc(C(=O)OCOC(=O)C(CC)CC)c2OB1O = 0.292 mL/min

With those in mind, consider the next compound.
# input Complete the entry with CL renal for "CCC(=O)N[C@H]1Cc2cccc(C(=O)O)c2OB1O"
# output 58.7 mL/min

* * *

- experiment-description: Plasma pharmacokinetics after single ascending doses of LED-E (VNRX-7145-101 Part 1)
- Format: in vivo
- test-settings: human, oral, single dose LED-E 800 mg, median (range)
Please go through the items and note down their Tmax.
Numbers only, in h.

* CCC(=O)N[C@H]1Cc2cccc(C(=O)OCOC(=O)C(CC)CC)c2OB1O | 0.5

# input Give the measured Tmax for "CCC(=O)N[C@H]1Cc2cccc(C(=O)O)c2OB1O"
# output 2

Origin of the recorded values: paper PMC12406652
